biological target: GlcNAc(b1-4)GlcNAc; assay: glycan array binding signal (z-score within array); higher = stronger binding; settings: glycan notation: IUPAC condensed, linker removed
This excerpt belongs to a sample that is enriched for the strongest signals.
endpoint-name: glycan array binding signal (z-score)
Answers are plain numbers.

binder | glycan array binding signal (z-score)
PNA (Arachis hypogaea), P02872 (protein) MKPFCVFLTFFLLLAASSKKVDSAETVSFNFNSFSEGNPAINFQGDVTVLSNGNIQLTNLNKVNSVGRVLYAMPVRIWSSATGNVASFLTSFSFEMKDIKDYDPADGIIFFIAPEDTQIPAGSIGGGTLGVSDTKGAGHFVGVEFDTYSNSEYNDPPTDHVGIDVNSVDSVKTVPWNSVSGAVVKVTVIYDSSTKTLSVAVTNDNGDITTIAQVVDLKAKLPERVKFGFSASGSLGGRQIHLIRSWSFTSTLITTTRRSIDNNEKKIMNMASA | -0.113
FGFR2-Fc (protein) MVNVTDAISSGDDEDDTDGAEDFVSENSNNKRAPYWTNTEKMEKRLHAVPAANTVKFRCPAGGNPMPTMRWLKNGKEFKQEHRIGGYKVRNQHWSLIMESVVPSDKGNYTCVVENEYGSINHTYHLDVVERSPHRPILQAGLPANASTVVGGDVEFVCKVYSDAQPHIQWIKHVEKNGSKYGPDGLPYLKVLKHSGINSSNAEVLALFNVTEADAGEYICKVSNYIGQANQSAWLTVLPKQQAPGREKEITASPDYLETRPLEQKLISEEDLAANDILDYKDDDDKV | -0.264

Here is another binder to look at.
Noted for SJA (Sophora japonica) (protein) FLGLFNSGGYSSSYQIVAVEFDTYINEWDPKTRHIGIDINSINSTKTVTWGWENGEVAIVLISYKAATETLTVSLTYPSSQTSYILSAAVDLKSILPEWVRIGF : its glycan array binding signal (z-score) reads -0.142
